Could you please report measured inhibition at 10 µM for the items listed next?
Molecular target: Purified recombinant trypanosome alternative oxidase (ΔMTS-TAO) (Trypanosoma brucei brucei, UniProt Q26710)
Sequence (Q26710 26-329, stated change not applied): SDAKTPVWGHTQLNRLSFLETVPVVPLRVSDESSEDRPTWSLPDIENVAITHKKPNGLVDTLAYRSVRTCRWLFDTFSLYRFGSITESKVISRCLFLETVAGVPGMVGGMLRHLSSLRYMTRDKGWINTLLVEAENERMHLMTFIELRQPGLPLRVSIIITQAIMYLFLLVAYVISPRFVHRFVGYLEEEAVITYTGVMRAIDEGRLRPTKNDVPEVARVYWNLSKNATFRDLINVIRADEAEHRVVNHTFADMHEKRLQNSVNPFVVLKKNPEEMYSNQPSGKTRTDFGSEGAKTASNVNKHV
Assay: Inhibition of ubiquinol oxidase activity of purified ΔMTS-TAO
Conditions: read-out: rTAO % inhibition (compound tested at 10 μM)
Return type: number; implicit unit %.

inhibition at 10 µM in this record for Cc1cc(O)cc(O)c1C(=O)NCCCCCCCCCCCCOc1ccc([N+](=O)[O-])cc1 [11c] : 53.8

inhibition at 10 µM in this record for CC(=O)O.Cc1cc(O)cc(O)c1C(=O)NCCCCCCCCCCCCOc1ccc(C2=NCCN2)cc1 : 10

inhibition at 10 µM in this record for CC(=O)O.Cc1cc(O)cc(O)c1C(=O)NCCCCCCCCCCCCOc1ccc(N=C2NCCN2)cc1 : 46.3

inhibition at 10 µM in this record for Cc1cc(O)c(C(=O)CCCCCCCCCCCCCCCOc2ccc(C#N)cc2)c(O)c1 : 13.4

inhibition at 10 µM in this record for Cc1cc(O)cc(OC(=O)CCCCCCCCCCCCCCCOc2ccc(C#N)cc2)c1 : 30

---

Could you please report measured SI (selectivity index) = CC50/EC50 (WT) for the items listed next?
Tested on: human embryonic kidney (HEK) cells
Settings: HEK CC50 / T. b. brucei WT EC50

SI (selectivity index) = CC50/EC50 (WT) in this record for CC(=O)O.Cc1cc(O)cc(O)c1C(=O)NCCCCCCCCCCCCOc1ccc(C(=N)N)cc1 [1c] : 13.2

SI (selectivity index) = CC50/EC50 (WT) in this record for Cc1cc(O)cc(O)c1C(=O)NCCCOc1ccc(C#N)cc1 [7a] : >5.3

SI (selectivity index) = CC50/EC50 (WT) in this record for Cc1cc(O)cc(O)c1C(=O)NCCCCCCCCCCCCCCOc1ccc(C#N)cc1 [7d] : 3.8

SI (selectivity index) = CC50/EC50 (WT) in this record for CC(=O)O.Cc1cc(O)cc(O)c1C(=O)NCCCCCCOc1ccc(C(=N)N)cc1 [1b] : >12.9

SI (selectivity index) = CC50/EC50 (WT) in this record for Cc1cc(O)cc(O)c1C(=O)NCCCCCCCCCCCCOc1ccc(C(=N)NO)cc1 [8c] : 13

---

System: Bloodstream form trypomastigotes of T. b. brucei strain 427 (WT)
Assay: Resazurin-based susceptibility assay, wild-type T. b. brucei
Assay type: cell-based
Settings: Trypanosoma brucei, BSF trypomastigotes strain 427, n = 3
testReadout: EC50 (µM)
Return type: number; implicit unit µM.

EC50 in this record for Cc1cc(O)cc(O)c1C(=O)NCCCCCCCCCCCCCCOc1ccc(C(=N)N)cc1 : 18.6

EC50 in this record for Cc1cc(O)cc(O)c1C(=O)NCCCCCCCCCCCCOc1ccc(C#N)cc1 : 15.6

EC50 in this record for Cc1cc(O)cc(O)c1C(=O)NCCCCCCCCCCCCCCOc1ccc(C(=N)NO)cc1 : 29

EC50 in this record for Cc1cc(O)cc(O)c1C(=O)NCCCCCCOc1ccc(C#N)cc1 : 30.4

EC50 in this record for Cc1cc(O)cc(O)c1C(=O)NCCCCCCCCCCCCCCOc1ccc(C#N)cc1 : 14.8

---

Target: Purified recombinant trypanosome alternative oxidase (ΔMTS-TAO) (Trypanosoma brucei brucei)
Test: Inhibition of ubiquinol oxidase activity of purified ΔMTS-TAO
Settings: rTAO IC50, purified ΔMTS-TAO, n = 3
pIC50: −log10 of the molar value.
Could you please report measured pIC50 for the items listed next?

pIC50 in this record for CC(=O)O.Cc1cc(O)cc(O)c1C(=O)NCCCCCCOc1ccc(C(=N)N)cc1 [1b] : < 4.40

pIC50 in this record for Cc1cc(O)c(C(=O)CCCCCCCCCCCCCCCOc2ccc(C#N)cc2)c(O)c1 [compound 20] : < 5.00

pIC50 in this record for Cc1cc(O)cc(O)c1C(=O)NCCCCCCCCCCCCOc1ccc(C#N)cc1 [7c] : < 4.40

pIC50 in this record for Cc1cc(O)cc(O)c1C(=O)NCCCOc1ccc(C#N)cc1 [7a] : < 4.40

pIC50 in this record for Cc1cc(O)cc(O)c1C(=O)NCCCCCCCCCCCCCCOc1ccc(C#N)cc1 [7d] : 4.79

pIC50 in this record for Cc1cc(O)cc(O)c1C(=O)NCCCCCCCCCCCCCCOc1ccc(C(=N)NO)cc1 [8d] : < 4.40

---

Could you please report measured SI (selectivity index) = CC50/EC50 (WT) for the items listed next?
Test system: human embryonic kidney (HEK) cells
Settings: HEK CC50 / T. b. brucei WT EC50

SI (selectivity index) = CC50/EC50 (WT) in this record for Cc1cc(O)cc(O)c1C(=O)NCCCCCCCCCCCCOc1ccc(N)cc1 [12c] : >4.9

SI (selectivity index) = CC50/EC50 (WT) in this record for CC(=O)O.Cc1cc(O)cc(O)c1C(=O)NCCCCCCCCCCCCOc1ccc(N=C2NCCN2)cc1 [3c] : >36.5

SI (selectivity index) = CC50/EC50 (WT) in this record for Cc1cc(O)c(C(=O)CCCCCCCCCCCCCCCOc2ccc(C#N)cc2)c(O)c1 [compound 20] : >17.1

SI (selectivity index) = CC50/EC50 (WT) in this record for Cc1cc(O)cc(O)c1C(=O)NCCCCCCOc1ccc(C(=N)NO)cc1 [8b] : 3.9

SI (selectivity index) = CC50/EC50 (WT) in this record for Cc1cc(O)cc(O)c1C(=O)NCCCCCCCCCCCCOc1ccc([N+](=O)[O-])cc1 [11c] : >10.5

SI (selectivity index) = CC50/EC50 (WT) in this record for CC(=O)O.Cc1cc(O)cc(O)c1C(=O)NCCCCCCCCCCCCOc1ccc(C2=NCCN2)cc1 [2c] : 39.1

SI (selectivity index) = CC50/EC50 (WT) in this record for Cc1cc(O)cc(O)c1C(=O)NCCCCCCCCCCCCOc1ccc(C#N)cc1 [7c] : 3.7

SI (selectivity index) = CC50/EC50 (WT) in this record for Cc1cc(O)cc(O)c1C(=O)NCCCCCCCCCCCCOc1ccc(N=C2N(C(=O)OC(C)(C)C)CCN2C(=O)OC(C)(C)C)cc1 [14c] : >9.6

---

Assay: in vitro
Settings: human
testReadout: CC50 (µM)
Return type: number; implicit unit µM.

CC50 in this record for Cc1cc(O)cc(O)c1C(=O)NCCCCCCOc1ccc(C(=N)NO)cc1 [8b] : 76.8

CC50 in this record for Cc1cc(O)cc(O)c1C(=O)NCCCCCCCCCCCCCCOc1ccc(C#N)cc1 [7d] : 56.8

CC50 in this record for CC(=O)O.Cc1cc(O)cc(O)c1C(=O)NCCCCCCCCCCCCOc1ccc(C(=N)N)cc1 [1c] : 43.5

---

Target: Purified recombinant trypanosome alternative oxidase (ΔMTS-TAO) (Trypanosoma brucei brucei)
Assay: Inhibition of ubiquinol oxidase activity of purified ΔMTS-TAO
Conditions: rTAO IC50, purified ΔMTS-TAO, n = 3
pIC50: −log10 of the molar value.
Could you please report measured pIC50 for the items listed next?

pIC50 in this record for Cc1cc(O)cc(O)c1C(=O)NCCCCCCCCCCCCCCOc1ccc(C(=N)N)cc1 : < 4.40

pIC50 in this record for Cc1cc(O)cc(O)c1C(=O)NCCCCCCCCCCCCOc1ccc([N+](=O)[O-])cc1 [11c] : 4.52

pIC50 in this record for Cc1cc(O)cc(OC(=O)CCCCCCCCCCCCCCCOc2ccc(C#N)cc2)c1 : < 5.00

pIC50 in this record for CC(=O)O.Cc1cc(O)cc(O)c1C(=O)NCCCCCCCCCCCCOc1ccc(C2=NCCN2)cc1 : < 5.00

pIC50 in this record for CC(=O)O.Cc1cc(O)cc(O)c1C(=O)NCCCCCCCCCCCCOc1ccc(N=C2NCCN2)cc1 : 4.65

pIC50 in this record for Cc1cc(O)cc(O)c1C(=O)NCCCCCCCCCCCCOc1ccc(C(=N)NO)cc1 : < 4.40

pIC50 in this record for Cc1cc(O)cc(O)c1C(=O)NCCCOc1ccc(C(=N)NO)cc1 : < 4.40

pIC50 in this record for Cc1cc(O)cc(O)c1C(=O)NCCCCCCOc1ccc(C(=N)NO)cc1 : < 4.40

pIC50 in this record for CC(=O)O.Cc1cc(O)cc(O)c1C(=O)NCCCCCCCCCCCCOc1ccc(C(=N)N)cc1 : < 4.40

---

System: Bloodstream form trypomastigotes of T. b. brucei strain 427 (WT)
Assay: Resazurin-based susceptibility assay, wild-type T. b. brucei
Format: cell-based
Settings: Trypanosoma brucei, BSF trypomastigotes strain 427, n = 3
Description: . […] This finding was in agreement with previous reports on TAO inhibitors showing that a decrease in efficacy against T. b. brucei growth inhibition was observed as chain length decreased.[8],[9],[23] […]
pEC50: −log10 of the molar value.
Could you please report measured pEC50 for the items listed next?

pEC50 in this record for CC(=O)O.Cc1cc(O)cc(O)c1C(=O)NCCCCCCCCCCCCOc1ccc(C(=N)N)cc1 : > 5.40

pEC50 in this record for Cc1cc(O)cc(OC(=O)CCCCCCCCCCCCCCCOc2ccc(C#N)cc2)c1 : < 4.00

pEC50 in this record for CC(=O)O.Cc1cc(O)cc(O)c1C(=O)NCCCOc1ccc(C(=N)N)cc1 : < 4.00

pEC50 in this record for Cc1cc(O)cc(O)c1C(=O)NCCCOc1ccc(C(=N)NO)cc1 : < 4.00
